Tested on: pS6 S235/S236 in A2058 cells
Assay: In-cell Western blot, pS6 S235/S236
Format: cell-based
Conditions: 1 hour treatment, normalized to α-tubulin
Reported Endpoint: pIC50
Note: pIC50 values are expressed as the negative base-10 logarithm of concentration in M.

Bench note, pS6 S235/S236 in A2058 cells: entry Nc1cc(C(F)(F)F)c(-c2cc(N3CCOCC3)nc(N3CCOCC3)n2)cn1 , its pIC50 = 6.19
